Ref: patent US10640506B2

Biological target: human JAK1 (a.a. 837-1142) (Homo sapiens, UniProt P23458)
Sequence (P23458 849-1154): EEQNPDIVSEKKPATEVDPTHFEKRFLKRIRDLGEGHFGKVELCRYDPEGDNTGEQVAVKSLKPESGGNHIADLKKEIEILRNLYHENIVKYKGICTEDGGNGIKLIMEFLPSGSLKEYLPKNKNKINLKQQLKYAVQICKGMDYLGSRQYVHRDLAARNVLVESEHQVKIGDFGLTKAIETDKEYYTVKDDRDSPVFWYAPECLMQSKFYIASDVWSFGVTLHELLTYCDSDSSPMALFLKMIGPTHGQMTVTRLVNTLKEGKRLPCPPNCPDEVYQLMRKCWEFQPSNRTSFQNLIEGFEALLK
Test: In vitro JAK kinase assay (HTRF, phosphorylation of biotinylated peptide), JAK1
Assay type: biochemical
Details: Table F; 1 mM ATP
value_kind: IC50

// solved cases for IC50 follow
N#CC[C@]1(n2cc(-c3ncnc4[nH]ccc34)cn2)C[C@H](N2CCN(C(=O)N[C@H]3CCC[C@@H]3O)CC2)C1 (racemic)    < 10 nM
CC(C)(O)c1cc(C(=O)N2CCN([C@H]3C[C@](CC#N)(n4cc(-c5ccnc6[nH]ccc56)cn4)C3)CC2)nc(C(F)(F)F)c1    < 10 nM
N#CC[C@]1(n2cc(-c3ncnc4[nH]ccc34)cn2)C[C@H](N2CCC(Oc3cc(C#N)cc(C(F)(F)F)n3)CC2)C1 (single isomer, unassigned)    < 10 nM
CC(C)(O)c1cc(C(=O)N2CCN([C@H]3C[C@@](CC#N)(n4cc(-c5ncnc6[nH]ccc56)cn4)C3)CC2)nc(C(F)(F)F)n1    < 10 nM

Task: Fill in IC50 for record `N#CC[C@]1(n2cc(-c3ncnc4[nH]ccc34)cn2)C[C@H](N2CCC(Oc3cc(CN)cc(C(F)(F)F)n3)CC2)C1`
Output: < 10 nM

Task: Give the value of IC50 reported for the following: `CC(C)(C)CNC(=O)N1CCN([C@H]2C[C@](CC#N)(n3cc(-c4ncnc5[nH]ccc45)cn3)C2)CC1`
Output: 10 to 25 nM

Task: Input `C[C@H](NC(=O)N1CCN([C@H]2C[C@](CC#N)(n3cc(-c4ncnc5[nH]ccc45)cn3)C2)CC1)C(F)(F)F` , output reported IC50.
Output: < 10 nM

Task: Specify measured IC50 for `N#CC[C@]1(n2cc(-c3ncnc4[nH]ccc34)cn2)C[C@H](N2CCN(C(=O)c3cc(CN4CCCC4)nc(C(F)(F)F)n3)CC2)C1` .
Output: < 10 nM

Task: Provide one value: measured IC50 of `CN(C)Cc1cc(Cl)nc(OC2CCN([C@H]3C[C@](CC#N)(n4cc(-c5ncnc6[nH]ccc56)cn4)C3)CC2)c1`
Output: < 10 nM

Task: State its IC50 for this molecule: `CN(C)/C(=N\C#N)N1CCN([C@H]2C[C@](CC#N)(n3cc(-c4ncnc5[nH]ccc45)cn3)C2)CC1`
Output: 10 to 25 nM

Task: Determine its reported IC50: `N#CC[C@]1(n2cc(-c3ncnc4[nH]ccc34)cn2)C[C@H](N2CCN(C(=O)N[C@@H]3CCOC3)CC2)C1`
Output: 10 to 25 nM

Task: Tell me its IC50 given `N#CC[C@]1(n2cc(-c3ncnc4[nH]ccc34)cn2)C[C@H](N2CCN(C(=O)c3cc(CO)cc(C(F)(F)F)n3)CC2)C1` as the entry.
Output: < 10 nM

Task: Provide only the value of recorded IC50 for `CCNCc1cc(OC2CCN([C@H]3C[C@](CC#N)(n4cc(-c5ncnc6[nH]ccc56)cn4)C3)CC2)nc(C(F)(F)F)c1`
Output: < 10 nM
